- System: influenza HA vaccine (B/Nagasaki/1/87 strain)
- Assay type: in vivo, female CDF1 mice
- measurement-context: Experiment 2; 5 W (after secondary stimulation at 3 weeks); 8000-fold dilution
Label key: label 1 means Anti HA serum antigen value (average value ± S.D.) under 0.8 O.D 415 nm; label 0 means Anti HA serum antigen value (average value ± S.D.) of 0.8 O.D 415 nm or more.

[[record]]
cpd_smiles = "CCCCCCCCCCCCCCCCCC(=O)OC[C@H]1O[C@H](OC(=O)C[C@@H](CCCCCCCCCCC)OC(=O)CCCCCCCCCCCCCCCCC)[C@H](NC(C)=O)[C@@H](O[C@H](C)C(=O)N[C@@H](C)C(=O)N[C@H](CCC(=O)OC)C(N)=O)[C@@H]1O"
target = "influenza HA vaccine (B/Nagasaki/1/87 strain)"
assigned_class = "label 1"

[[record]]
cpd_smiles = "CCCCCCCCCCCCCCCCCC(=O)O[C@H](CCCCCCCCCCC)CC(=O)S[C@@H]1O[C@H](CO)[C@@H](O)[C@H](O[C@H](C)C(=O)N[C@@H](C)C(=O)N[C@H](CCC(=O)OC)C(N)=O)[C@H]1NC(C)=O"
target = "influenza HA vaccine (B/Nagasaki/1/87 strain)"
assigned_class = "label 0"

[[record]]
cpd_smiles = "CCCCCCCCCCCCCCCCCC(=O)O[C@H](CCCCCCCCCCC)CC(=O)O[C@H]1O[C@H](CO)[C@@H](O)[C@H](O[C@H](C)C(=O)N[C@@H](C)C(=O)N[C@H](CCC(=O)OC)C(N)=O)[C@H]1NC(C)=O"
target = "influenza HA vaccine (B/Nagasaki/1/87 strain)"
assigned_class = "label 1"

[[record]]
cpd_smiles = "CCCCCCCCCCCCCCCC(=O)O[C@H](CCCCCCCCCCC)CC(=O)S[C@@H]1O[C@H](CO)[C@@H](O)[C@H](O[C@H](C)C(=O)N[C@@H](C)C(=O)N[C@H](CCC(=O)OC)C(N)=O)[C@H]1NC(C)=O"
target = "influenza HA vaccine (B/Nagasaki/1/87 strain)"
assigned_class = "label 0"

[[record]]
cpd_smiles = "CCCCCCCCCCCCCCCCCC(=O)OC[C@H]1O[C@H](OC(=O)C[C@@H](CCCCCCCCCCC)OC(=O)CCCCCCCCCCCCC)[C@H](NC(C)=O)[C@@H](O[C@H](C)C(=O)N[C@@H](C)C(=O)N[C@H](CCC(=O)OC)C(N)=O)[C@@H]1O"
target = "influenza HA vaccine (B/Nagasaki/1/87 strain)"
assigned_class = "label 1"


In the following, a different compound is considered.
(Q) Problem: For the compound CCCCCCCCCCCCCCCC(=O)O[C@H](CCCCCCCCCCC)CC(=O)O[C@H]1O[C@H](CO)[C@@H](O)[C@H](O[C@H](C)C(=O)N[C@@H](C)C(=O)N[C@H](CCC(=O)OC)C(N)=O)[C@H]1NC(C)=O , is Anti HA serum antigen value (average value ± S.D.) under 0.8 O.D 415 nm?
(A) label 1

====

- Tested on: influenza HA vaccine (B/Nagasaki/1/87 strain)
- Assay type: in vivo, female CDF1 mice
- measurement-context: Experiment 2; 3 W; 8000-fold dilution
observed-property: Anti HA serum antigen value (average value ± S.D.) (O.D 415 nm)
Answer with a number only, understood to be in O.D 415 nm.

(Q) Need Anti HA serum antigen value (average value ± S.D.), item CCCCCCCCCCCCCCCCCC(=O)O[C@H](CCCCCCCCCCC)CC(=O)S[C@@H]1O[C@H](CO)[C@@H](O)[C@H](O[C@H](C)C(=O)N[C@@H](C)C(=O)N[C@H](CCC(=O)OC)C(N)=O)[C@H]1NC(C)=O [Example 23]
(A) 0.183

(Q) Need Anti HA serum antigen value (average value ± S.D.), item CCCCCCCCCCCCCCCCCCCCCCCC(=O)O[C@H](CCCCCCCCCCC)CC(=O)S[C@@H]1O[C@H](COC(=O)CCCCCCCCCCCCCCCCC)[C@@H](O)[C@H](O[C@H](C)C(=O)N[C@@H](C)C(=O)N[C@H](CCC(=O)OC)C(N)=O)[C@H]1NC(C)=O [Example 28]
(A) 0.061

(Q) Need Anti HA serum antigen value (average value ± S.D.), item CCCCCCCCCCCCCCCCCC(=O)O[C@H](CCCCCCCCCCC)CC(=O)O[C@H]1O[C@H](CO)[C@@H](O)[C@H](O[C@H](C)C(=O)N[C@@H](C)C(=O)N[C@H](CCC(=O)OC)C(N)=O)[C@H]1NC(C)=O [Example 21]
(A) 0.097
